biological target: neuronal nicotinic acetylcholine receptors (Rattus norvegicus, UniProt P09483+P12390); construct: crude synaptic membrane preparations from whole rat brain; from tissue; host or cells: whole rat brain, crude synaptic membranes; assay: Binding of [3H]-cytisine to neuronal nicotinic acetylcholine receptors, crude synaptic membranes from whole rat brain
Sequence (P09483 31-630): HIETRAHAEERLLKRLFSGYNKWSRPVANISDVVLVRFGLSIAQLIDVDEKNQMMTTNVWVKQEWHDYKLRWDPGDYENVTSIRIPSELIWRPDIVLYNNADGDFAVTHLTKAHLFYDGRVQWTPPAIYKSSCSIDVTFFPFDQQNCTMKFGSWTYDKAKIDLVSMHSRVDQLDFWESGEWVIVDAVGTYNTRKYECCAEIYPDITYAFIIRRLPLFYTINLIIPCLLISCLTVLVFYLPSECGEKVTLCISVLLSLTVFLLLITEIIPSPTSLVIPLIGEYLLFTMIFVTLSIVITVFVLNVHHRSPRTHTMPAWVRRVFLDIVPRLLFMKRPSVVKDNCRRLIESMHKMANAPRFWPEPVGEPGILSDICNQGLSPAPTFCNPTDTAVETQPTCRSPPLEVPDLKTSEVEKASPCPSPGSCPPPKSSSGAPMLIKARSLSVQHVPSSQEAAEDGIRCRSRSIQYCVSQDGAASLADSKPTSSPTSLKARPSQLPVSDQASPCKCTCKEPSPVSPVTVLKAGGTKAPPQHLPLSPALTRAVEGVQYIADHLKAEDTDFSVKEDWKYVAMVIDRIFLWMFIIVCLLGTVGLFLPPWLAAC
Sequence (P12390 25-500): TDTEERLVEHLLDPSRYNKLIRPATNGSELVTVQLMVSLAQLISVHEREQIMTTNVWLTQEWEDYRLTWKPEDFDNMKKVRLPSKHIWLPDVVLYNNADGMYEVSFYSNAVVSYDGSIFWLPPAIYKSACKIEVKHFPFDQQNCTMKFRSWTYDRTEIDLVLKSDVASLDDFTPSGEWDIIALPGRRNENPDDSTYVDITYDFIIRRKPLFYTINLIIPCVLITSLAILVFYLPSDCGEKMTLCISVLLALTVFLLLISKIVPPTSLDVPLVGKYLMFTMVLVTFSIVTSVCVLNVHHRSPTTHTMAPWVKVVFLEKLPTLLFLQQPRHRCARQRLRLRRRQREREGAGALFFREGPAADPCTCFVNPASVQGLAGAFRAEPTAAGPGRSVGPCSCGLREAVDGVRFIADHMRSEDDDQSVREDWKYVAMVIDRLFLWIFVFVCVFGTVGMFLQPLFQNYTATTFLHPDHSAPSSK
Structures can show the parent of a compound that is named as a salt.
Give pKi for every item shown.
One number for each entry, as −log10 of the molar value.

Items follow; give pKi for each.
1. Cc1cc(N2CC[C@@H](N)C2)cnc1Cl [Example 15, hydrochloride]
2. N[C@@H]1CCN(c2ccc(Cl)nc2)C1
3. COc1cc(N2CC[C@H](N)C2)cnc1Cl [Example 23, dihydrochloride]
4. Cc1cc(N2CC[C@H](N)C2)cnc1F [Example 25, hydrochloride]
5. N[C@@H]1CCN(c2cccnc2)[C@@H]1CCl [Example 51, dihydrochloride]
6. N[C@@H]1CCCN(c2ccc(Cl)nc2)C1 [Example 47, bis(4-methylbenzenesulfonate)]
7. CN[C@H]1CCCN(c2cccnc2)C1 [Example 42, bis(4-methylbenzenesulfonate)]
8. C[C@@H]1CCN(c2ccc(Cl)nc2)C[C@H]1N (relative stereo) [Example 40, hydrochloride]

Solution:
1: 10.52; 2: 9.66; 3: 9.89; 4: 9.47; 5: 6.15; 6: 9.42; 7: 7.08; 8: 8.27
